The reported measurements were obtained from ChEMBL document CHEMBL5214964.

Experiment: in vivo
Details: rat, synovial fluid, ip, 20 mg/kg
measured.endpoint: concentration at 4 h (µM)

>>> assay_result("NCCNS(=O)(=O)c1ccc(-c2ccc(CSc3nc4c(c(=O)[nH]3)CCC4)cc2)cc1")
3.27

* * *

Assay: in vivo
Conditions: rat, plasma, ip, 20 mg/kg
measured.endpoint: concentration at 2 h (µM)

>>> assay_result("NCCNS(=O)(=O)c1ccc(-c2ccc(CSc3nc4c(c(=O)[nH]3)CCC4)cc2)cc1")
85

* * *

Experiment: in vivo
Conditions: rat, plasma, ip, 20 mg/kg
measured.endpoint: concentration at 4 h

>>> assay_result("NCCNS(=O)(=O)c1ccc(-c2ccc(CSc3nc4c(c(=O)[nH]3)CCC4)cc2)cc1")
"57 µM"

* * *

Assay: in vivo
Conditions: rat, plasma, ip, 20 mg/kg
measured.endpoint: concentration at 1 h (µM)

>>> assay_result("NCCNS(=O)(=O)c1ccc(-c2ccc(CSc3nc4c(c(=O)[nH]3)CCC4)cc2)cc1")
115
